- Test system: S. aureus VISA/HIP5827
- EXPERIMENTAL PROTOCOL: MIC, broth microdilution, vancomycin-intermediate S. aureus VISA HIP5827
- Assay type: cell-based, Staphylococcus aureus
- ASSAY CONTEXT: Staphylococcus aureus VISA/HIP5827; read-out: MIC

{"columns": ["COMPOUND", "MIC / µM"],
 "data": [
  ["CNC(CC(C)C)C(=O)NC1C(=O)NC(CC(N)=O)C(=O)NC2C(=O)NC3C(=O)NC(C(=O)NC(C(=O)NCC(=O)Nc4ccc(-c5ccc(C(C)=O)cc5)cc4)c4cc(O)cc(O)c4-c4cc3ccc4O)C(O)c3ccc(c(Cl)c3)Oc3cc2cc(c3OC2OC(CO)C(O)C(O)C2OC2CC(C)(N)C(O)C(C)O2)Oc2ccc(cc2Cl)C1O (centres unmarked)", 0.78],
  ["C#Cc1ccc2cc(C(=O)NCCCNC(=O)[C@H]3NC(=O)[C@H]4NC(=O)[C@H](NC(=O)[C@@H]5NC(=O)[C@H](CC(N)=O)NC(=O)[C@H](NC(=O)[C@@H](CC(C)C)NC)[C@H](O)c6ccc(c(Cl)c6)Oc6cc5cc(c6O[C@@H]5O[C@H](CO)[C@@H](O)[C@H](O)[C@H]5O[C@H]5C[C@](C)(N)[C@H](O)[C@H](C)O5)Oc5ccc(cc5Cl)[C@H]4O)c4ccc(O)c(c4)-c4c(O)cc(O)cc43)ccc2c1", 1.56],
  ["CN[C@H](CC(C)C)C(=O)N[C@H]1C(=O)N[C@@H](CC(N)=O)C(=O)N[C@H]2C(=O)N[C@H]3C(=O)N[C@H](C(=O)N[C@H](C(=O)NCC(=O)Nc4ccc(C)cc4C)c4cc(O)cc(O)c4-c4cc3ccc4O)[C@H](O)c3ccc(c(Cl)c3)Oc3cc2cc(c3O[C@@H]2O[C@H](CO)[C@@H](O)[C@H](O)[C@H]2O[C@H]2C[C@](C)(N)[C@H](O)[C@H](C)O2)Oc2ccc(cc2Cl)[C@H]1O", 1.56],
  ["CCc1ccc(NC(=O)CNC(=O)[C@H]2NC(=O)[C@H]3NC(=O)[C@H](NC(=O)[C@@H]4NC(=O)[C@H](CC(N)=O)NC(=O)[C@H](NC(=O)[C@@H](CC(C)C)NC)[C@H](O)c5ccc(c(Cl)c5)Oc5cc4cc(c5O[C@@H]4O[C@H](CO)[C@@H](O)[C@H](O)[C@H]4O[C@H]4C[C@](C)(N)[C@H](O)[C@H](C)O4)Oc4ccc(cc4Cl)[C@H]3O)c3ccc(O)c(c3)-c3c(O)cc(O)cc32)cc1", 0.39],
  ["CN[C@H](CC(C)C)C(=O)N[C@H]1C(=O)N[C@@H](CC(N)=O)C(=O)N[C@H]2C(=O)N[C@H]3C(=O)N[C@H](C(=O)N[C@H](C(=O)NCCNC(=O)/C=C/c4ccc(F)cc4)c4cc(O)cc(O)c4-c4cc3ccc4O)[C@H](O)c3ccc(c(Cl)c3)Oc3cc2cc(c3O[C@@H]2O[C@H](CO)[C@@H](O)[C@H](O)[C@H]2O[C@H]2C[C@](C)(N)[C@H](O)[C@H](C)O2)Oc2ccc(cc2Cl)[C@H]1O", 1.56],
  ["CNC(CC(C)C)C(=O)NC1C(=O)NC(CC(N)=O)C(=O)NC2C(=O)NC3C(=O)NC(C(=O)NC(C(=O)NCCCNC(=O)c4ccc5cc(NS(=O)(=O)c6ccc(C)cc6)ccc5c4)c4cc(O)cc(O)c4-c4cc3ccc4O)C(O)c3ccc(c(Cl)c3)Oc3cc2cc(c3OC2OC(CO)C(O)C(O)C2OC2CC(C)(N)C(O)C(C)O2)Oc2ccc(cc2Cl)C1O (centres unmarked)", 0.78],
  ["CCCCCCn1cc(-c2ccc(NC(=O)CNC(=O)C3NC(=O)C4NC(=O)C(NC(=O)C5NC(=O)C(CC(N)=O)NC(=O)C(NC(=O)C(CC(C)C)NC)C(O)c6ccc(c(Cl)c6)Oc6cc5cc(c6OC5OC(CO)C(O)C(O)C5OC5CC(C)(N)C(O)C(C)O5)Oc5ccc(cc5Cl)C4O)c4ccc(O)c(c4)-c4c(O)cc(O)cc43)cc2)nn1 (centres unmarked)", 0.78],
  ["CN[C@H](CC(C)C)C(=O)N[C@H]1C(=O)N[C@@H](CC(N)=O)C(=O)N[C@H]2C(=O)N[C@H]3C(=O)N[C@H](C(=O)N[C@H](C(=O)NCC(=O)Nc4ccc(Cl)cc4Cl)c4cc(O)cc(O)c4-c4cc3ccc4O)[C@H](O)c3ccc(c(Cl)c3)Oc3cc2cc(c3O[C@@H]2O[C@H](CO)[C@@H](O)[C@H](O)[C@H]2O[C@H]2C[C@](C)(N)[C@H](O)[C@H](C)O2)Oc2ccc(cc2Cl)[C@H]1O", 0.10],
  ["CN[C@H](CC(C)C)C(=O)N[C@H]1C(=O)N[C@@H](CC(N)=O)C(=O)N[C@H]2C(=O)N[C@H]3C(=O)N[C@H](C(=O)N[C@H](C(=O)NCC(=O)Nc4ccc(C#Cc5ccccc5)cc4)c4cc(O)cc(O)c4-c4cc3ccc4O)[C@H](O)c3ccc(c(Cl)c3)Oc3cc2cc(c3O[C@@H]2O[C@H](CO)[C@@H](O)[C@H](O)[C@H]2O[C@H]2C[C@](C)(N)[C@H](O)[C@H](C)O2)Oc2ccc(cc2Cl)[C@H]1O", 0.05],
  ["CCCCCCc1ccc(NC(=O)CNC(=O)[C@H]2NC(=O)[C@H]3NC(=O)[C@H](NC(=O)[C@@H]4NC(=O)[C@H](CC(N)=O)NC(=O)[C@H](NC(=O)[C@@H](CC(C)C)NC)[C@H](O)c5ccc(c(Cl)c5)Oc5cc4cc(c5O[C@@H]4O[C@H](CO)[C@@H](O)[C@H](O)[C@H]4O[C@H]4C[C@](C)(N)[C@H](O)[C@H](C)O4)Oc4ccc(cc4Cl)[C@H]3O)c3ccc(O)c(c3)-c3c(O)cc(O)cc32)cc1", 0.78],
  ["CCCCCn1cc(-c2ccc(NC(=O)CNC(=O)C3NC(=O)C4NC(=O)C(NC(=O)C5NC(=O)C(CC(N)=O)NC(=O)C(NC(=O)C(CC(C)C)NC)C(O)c6ccc(c(Cl)c6)Oc6cc5cc(c6OC5OC(CO)C(O)C(O)C5OC5CC(C)(N)C(O)C(C)O5)Oc5ccc(cc5Cl)C4O)c4ccc(O)c(c4)-c4c(O)cc(O)cc43)cc2)nn1 (centres unmarked)", 0.39]
]}
